Tested on: A549 NSCLC
Assay: NCI tumour cell line growth inhibition, 48 h
Outcome measure: TGI

Compound | Measured result
COc1cc2c(cc1OC)-c1cc3cc(OC)c(OC)cc3n1CC2 | > 100 µM
COc1cc(NCCCCN=C(N)NC(N)=NC(C)C)c2ncccc2c1 | > 100 µM
N#Cc1c(-c2ccco2)cc(-c2ccc(NCc3nc4ccccc4[nH]3)cc2)nc1N | 93.8 µM
COc1cc(-c2oc3c(OC)c(O)c(OC)c(O)c3c(=O)c2OC)cc(O)c1OC | > 100 µM
CCCCCCCC/C=C/CCCCCCCC1=NCC[N+]1(CCO)CCO | 10.9 µM
C=C(C)[C@@H]1CC[C@]2(C)[C@H](C(=O)C=C3[C@@H]4C[C@](C)(C(=O)N5CCN(C)CC5)CC[C@]4(C)CC[C@]32C)[C@@]1(C)CCC#N | 14.5 µM
O=C1NC(Cc2c[nH]c3ccccc23)C(=O)N2C(C3CCCCC3)c3[nH]c4ccccc4c3C[C@@H]12 (stereo not given in full) | > 100 µM
CC(C)(C)N(Cc1ccc2c(c1)OCO2)C(=O)/C=C\S(=O)c1ccccc1 (stereo not given) | 18.4 µM
COc1cccc(C2C(C#N)=C(N)Oc3cc(N)ccc32)c1 (stereo not given) | > 100 µM
CCSCC(N)C(=O)O (stereo not given) | > 100 µM
CCOC(=O)CCC(NC(=O)c1ccc(Oc2nc3ccc(C(F)(F)F)cc3nc2-c2ccccc2)cc1)C(=O)OCC (stereo not given) | > 100 µM
O=C(OCc1ccccc1)N1CCN(/[N+]([O-])=N/Oc2ccc([N+](=O)[O-])cc2[N+](=O)[O-])CC1 | 56 µM
Cc1ccc(NC(=O)c2cccc([N+](=O)[O-])c2O)c([N+](=O)[O-])c1 | 68 µM
CN(C)CCNc1ccc2c(=O)n(CCN(C)C)c(=O)n3c4ccc([N+](=O)[O-])cc4c(=O)c1c23 | 2.26 µM
ClC1=C(Cl)C(Cl)=C(Cl)C1=C/C=C/c1ccccc1 | 1.24 µM
O=C(NNC(=S)Nc1ccccc1)c1ccccc1Nc1ccccc1C(=O)NNC(=S)Nc1ccccc1 | > 100 µM
COC1=CC(=O)[C@H]2[C@H](C)C(c3ccccc3)[C@@]2(C)C1=O (stereo not given in full) | > 100 µM
NS(=O)(=O)c1cc2c(cc1Cl)NC(Cc1ccccc1)NS2(=O)=O (stereo not given) | > 100 µM
CSc1nc(-c2cc3c(c(SC)n2)CCCCC3)cc2c1CCCCC2 | > 100 µM
S=C(N/N=C(/c1ccccc1)c1ccccn1)Nc1ccccc1Cl | 13 µM

====

Tested on: UACC-257 melanoma
Assay: NCI tumour cell line growth inhibition, 48 h
Outcome measure: TGI

Compound | Measured result
O=C1/C(=C\c2cccc(Oc3ccccc3)c2)S(=O)(=O)C(c2ccccc2)N1c1ccc(Cl)cc1 (stereo not drawn) | 94.3 µM
Cc1cccc2c1Oc1ccccc1C2NC(=O)c1ccc([N+](=O)[O-])cc1 (stereo not drawn) | > 100 µM
Cc1ccc(NC(=O)c2cccc([N+](=O)[O-])c2O)c([N+](=O)[O-])c1 | 33.4 µM
CC1(C)N=C(C(N)=O)c2ncn(-c3ccccc3)c2N1 | > 100 µM
O=P(O)(O)c1ccccc1 (tested in a mixture with another compound) | > 100 µM
CCCCCNc1nonc1N | > 100 µM
COc1cc(CCCOC(=O)/C=C/c2ccc(O)c(O)c2)cc(O)c1O | > 100 µM
CCCCCCCCCCCCCCCCCC1=NCCN1CS(=O)(=O)O | 33.9 µM

These measurements were taken from PubChem BioAssay (NCI).
